Test: Half life in rat liver microsomes
Type: ADME, microsome
Details: liver microsomes
Reported half-life values are given for each entry in this list.
Enter your answer as a number in min; do not include the unit.

Some entries whose results are on file:
[[record]]
compound = "Oc1cccc(C2C[C@H]3CC[C@H](C2)N3CCCc2ccccc2)c1 (relative stereo; 12a)"
parameter_measured = "half-life"
measured_result = 2

[[record]]
compound = "O=C1c2ccccc2C(=O)N1CCCCN1[C@@H]2CC[C@@H]1CC(c1cccc(O)c1)C2 (relative stereo; 21a)"
parameter_measured = "half-life"
measured_result = 18


Name the recorded half-life of the compound listed here: O=C(CN1[C@@H]2CC[C@@H]1CC(c1cccc(O)c1)C2)C1CCCCC1 (relative stereo; 22a)
2

Name the recorded half-life of the compound listed here: Oc1cccc(C2C[C@H]3CC[C@H](C2)N3CC(O)Cc2ccccc2)c1 (relative stereo; 23a)
2

Name the recorded half-life of the compound listed here: Oc1cccc(C2C[C@H]3CC[C@H](C2)N3CCCOc2ccccc2)c1 (relative stereo; 19a)
2

Name the recorded half-life of the compound listed here: CCCCCCCN1[C@@H]2CC[C@@H]1CC(c1cccc(O)c1)C2 (relative stereo; 17a)
3

====

Biological target: Mu-type opioid receptor (Homo sapiens, UniProt P35372)
Sequence (P35372 whole entry): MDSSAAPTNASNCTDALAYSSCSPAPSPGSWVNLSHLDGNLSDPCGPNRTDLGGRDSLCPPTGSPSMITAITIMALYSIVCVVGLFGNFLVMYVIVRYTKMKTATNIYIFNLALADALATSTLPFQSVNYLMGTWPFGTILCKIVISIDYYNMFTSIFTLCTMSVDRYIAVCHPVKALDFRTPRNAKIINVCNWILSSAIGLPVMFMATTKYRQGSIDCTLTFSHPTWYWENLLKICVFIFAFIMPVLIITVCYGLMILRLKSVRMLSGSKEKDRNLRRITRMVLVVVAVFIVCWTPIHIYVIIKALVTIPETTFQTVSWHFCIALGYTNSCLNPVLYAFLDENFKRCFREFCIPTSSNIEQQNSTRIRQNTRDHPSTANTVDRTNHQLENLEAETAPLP
Assay: Intrinsic activity at recombinant human mu opioid receptor expressed in CHOK1 cells by [35S]GTPgammaS binding assay relative to DAMGO
Type: functional, cell-based
Reported Intrinsic activity values are given for each entry in this list.
Enter your answer as a number in %; do not include the unit.

Some entries whose results are on file:
[[record]]
compound = "Oc1cccc(C2C[C@H]3CC[C@H](C2)N3CCCc2ccccc2)c1 (relative stereo; 12b)"
measured_result = 64

[[record]]
compound = "CCCCCCCN1[C@@H]2CC[C@@H]1CC(c1cccc(C(N)=O)c1)C2 (relative stereo)"
measured_result = 28

[[record]]
compound = "C[C@H]1CN(C[C@H](Cc2ccccc2)C(=O)NCC(=O)O)CC[C@@]1(C)c1cccc(O)c1"
measured_result = -6


Next compound, Intrinsic activity to be filled in.
Name the recorded Intrinsic activity of the compound listed here: Oc1cccc(C2C[C@H]3CC[C@H](C2)N3CC(O)Cc2ccccc2)c1 (relative stereo; 23b)
36

====

Reported half-life values are given for each entry in this list.
Assay: Half life in human liver microsomes
Type: ADME, microsome
Settings: liver microsomes

[[record]]
compound = "NC(=O)c1cccc(C2C[C@H]3CC[C@H](C2)N3CC(O)Cc2ccccc2)c1 (relative stereo)"
parameter_measured = "half-life"
measured_result = "> 1.5 h"


Name the recorded half-life of the compound listed here: Oc1cccc(C2C[C@H]3CC[C@H](C2)N3CCCc2ccccc2)c1 (relative stereo; 12a)
0.25 h

Name the recorded half-life of the compound listed here: NC(=O)c1cccc(C2C[C@H]3CC[C@H](C2)N3CC(=O)C2CCCCC2)c1 (relative stereo; 30a)
> 1.5 h

Name the recorded half-life of the compound listed here: O=C(CN1[C@@H]2CC[C@@H]1CC(c1cccc(O)c1)C2)C1CCCCC1 (relative stereo; 22a)
0.2 h

Name the recorded half-life of the compound listed here: NC(=O)c1cccc(C2C[C@H]3CC[C@H](C2)N3CCCOc2ccccc2)c1 (relative stereo)
> 1.5 h

Name the recorded half-life of the compound listed here: NC(=O)c1cccc(C2C[C@H]3CC[C@H](C2)N3CCCCN2C(=O)c3ccccc3C2=O)c1 (relative stereo; 29a)
> 1.5 h
